Kindly state inhibition for each of the entries shown.
Target: 5-hydroxytryptamine receptor 1A (Homo sapiens) (UniProt P08908)
Sequence (P08908 whole entry): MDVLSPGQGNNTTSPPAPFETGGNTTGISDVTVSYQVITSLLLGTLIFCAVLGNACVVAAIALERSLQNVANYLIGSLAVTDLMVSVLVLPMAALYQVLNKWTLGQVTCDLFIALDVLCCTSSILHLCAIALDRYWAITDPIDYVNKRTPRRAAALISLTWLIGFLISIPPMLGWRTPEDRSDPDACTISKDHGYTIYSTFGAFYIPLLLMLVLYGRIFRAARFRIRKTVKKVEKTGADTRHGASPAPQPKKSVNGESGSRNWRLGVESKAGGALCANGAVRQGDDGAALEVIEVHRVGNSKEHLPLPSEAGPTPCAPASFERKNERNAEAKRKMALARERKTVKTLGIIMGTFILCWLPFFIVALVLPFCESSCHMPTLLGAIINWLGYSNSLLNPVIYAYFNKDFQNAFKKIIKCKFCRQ
Experiment: Binding affinity for 5-hydroxytryptamine 1A receptor was determined by incubating human 5-hydroxytryptamine 1A receptor transfected CHO cells with [3H]8-OH-DPAT
Type: cell-based
Design: concentration or dose not given beside the values
Settings: concentration not given here
Give bare numbers, in %.

{"columns": ["Molecule", "Reading unit", "Test result"],
 "data": [
  ["N#Cc1ccc2[nH]cc([C@H]3CC[C@@H](N4CCCCC4)CC3)c2c1", "%", 0],
  ["N#Cc1ccc2[nH]cc(C3=CCC(NCCc4ccccc4)CC3)c2c1 (stereo not drawn)", "%", 41],
  ["N#Cc1ccc2[nH]cc([C@H]3CC[C@H](NCCc4ccccc4)CC3)c2c1", "%", 0],
  ["COc1cccc2c1CN([C@H]1CC[C@H](c3c[nH]c4ccc(C#N)cc43)CC1)CC2", "%", 46],
  ["COc1ccc2c(c1)CCN([C@H]1CC[C@H](c3c[nH]c4ccc(C#N)cc43)CC1)C2", "%", 74]
]}

Parameter requested: inhibition. Apply to each item below.
1. N#Cc1ccc2[nH]cc([C@H]3CC[C@@H](N4CCc5ccccc5C4)CC3)c2c1
2. N#Cc1ccc2[nH]cc([C@H]3CC[C@@H](NCc4ccccc4)CC3)c2c1
3. COc1cccc2c1CCN([C@H]1CC[C@@H](c3c[nH]c4ccc(C#N)cc43)CC1)C2
4. COc1ccc2c(c1)CN([C@H]1CC[C@H](c3c[nH]c4ccc(C#N)cc43)CC1)CC2
5. Fc1ccc2[nH]cc([C@H]3CC[C@@H](NCc4ccccc4)CC3)c2c1
6. N#Cc1ccc2[nH]cc([C@H]3CC[C@H](N4CCCCC4)CC3)c2c1
7. Fc1ccc2[nH]cc([C@H]3CC[C@H](NCc4ccccc4)CC3)c2c1
8. N#Cc1ccc2[nH]cc([C@H]3CC[C@H](NCc4ccccc4)CC3)c2c1

Response line:
1. 0
2. 15
3. 7
4. 48
5. 3
6. 0
7. 11
8. 37
